target entity: β-secretase(BACE) (Homo sapiens, UniProt P56817)
Construct: purchased Panvera
Sequence (P56817 46-501): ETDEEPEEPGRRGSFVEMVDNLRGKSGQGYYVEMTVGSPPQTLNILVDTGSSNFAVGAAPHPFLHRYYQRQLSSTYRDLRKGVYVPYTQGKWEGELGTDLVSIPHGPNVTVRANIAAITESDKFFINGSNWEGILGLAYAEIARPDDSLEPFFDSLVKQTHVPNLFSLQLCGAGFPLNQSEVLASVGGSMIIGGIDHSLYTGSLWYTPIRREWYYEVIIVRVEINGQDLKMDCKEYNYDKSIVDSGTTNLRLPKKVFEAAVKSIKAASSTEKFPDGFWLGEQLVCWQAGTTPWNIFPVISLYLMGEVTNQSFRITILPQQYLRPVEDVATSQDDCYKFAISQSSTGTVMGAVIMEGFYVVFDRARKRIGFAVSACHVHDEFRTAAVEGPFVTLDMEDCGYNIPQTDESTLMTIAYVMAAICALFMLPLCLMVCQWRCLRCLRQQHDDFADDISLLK
assay info: BACE FS1% Inhibition Assay
Assay type: biochemical
measurement setup: 1 μM test compound; FS1 substrate
metric name: % Inhibition (FS) 1 μM (%)

Example entries and their recorded answers appear below.
CN(C(=O)CCC(C1CCCCC1)N1Cc2cc(Oc3ccccc3)ccc2N=C1N)C1CCOCC1 (stereo not shown) :: 30
NC1=Nc2ccc(Oc3ccccc3)cc2CN1C1CCCN(C(=O)C2CCCCC2)C1 (stereo not shown) :: 36
NC1=Nc2ccc(Oc3ccccc3)cc2CN1Cc1cccc(C(=O)N2CCC3CCCCC3C2)c1 (stereo not shown) :: 34

(P) CSc1ccccc1-c1ccc2c(c1)CN(CCNC(=O)C1CCCCC1)C(N)=N2
(Q) Cc1ccccc1-c1ccc2c(c1)CN(CCNC(=O)C(C)(C)C)C(N)=N2
Of the two listed items, which has the higher % Inhibition (FS) 1 μM? First: P Second: Q Return value: the label identifying the chosen record.
Q

###

target entity: β-secretase(BACE) (Homo sapiens, UniProt P56817)
Construct: purchased Panvera
assay info: BACE FS1% Inhibition Assay
Format: biochemical
measurement setup: 10 μM test compound; FS1 substrate
metric name: % Inhibition (FS) 10 μM (%)

CCCC(CCCC(=O)NC1CCCCC1)N1Cc2cc(Oc3ccccc3)ccc2N=C1N (stereo not drawn) [Compound 91] :: 117

(I) NC1=Nc2ccc(Oc3ccccc3)cc2CN1CCNC(=O)CCc1ccccc1 [Compound 155]
(II) NC1=Nc2ccc(Oc3ccccc3)cc2CN1C1CCN(C(=O)C2CCCC2)C1 (stereo not drawn) [Compound 120]
Returns: the label, I or II , whose recorded % Inhibition (FS) 10 μM is the lower number. Answer by quoting the chosen item's label.
II
(II: 34%, I: 49%)

###

target entity: β-secretase(BACE) (Homo sapiens)
Construct: purchased Panvera
assay info: BACE FS1% Inhibition Assay
Format: biochemical
measurement setup: 3 μM test compound; FS1 substrate; read-out: % Inhibition (FS) 3 μM
metric name: inhibition at 3 µM (%)

A selection of reference data follows.
NC1=Nc2ccc(Oc3ccccc3)cc2CN1CCC(=O)NC1C2CC3CC(C2)CC1C3 (centres unmarked) :: 118
CN(CCCN1Cc2cc(Oc3ccccc3)ccc2N=C1N)C1CCCCC1 :: 98
CN(C(=O)c1cccc(C(c2ccccc2)N2Cc3cc(Oc4ccccc4)ccc3N=C2N)c1)C1CCCCC1 (centres unmarked) :: 85
CCCC(CCC)C(=O)NCCN1Cc2cc(Oc3ccccc3)ccc2N=C1N :: 106
COc1cccc(F)c1-c1ccc2c(c1)CN(CCNC(=O)C1CCCCC1)C(N)=N2 :: 118
Cc1ccccc1-c1ccc2c(c1)CN(Cc1cccc(C(=O)N(C)C3CCCCC3)c1)C(N)=N2 :: 110

(A) CCOc1ccccc1-c1ccc2c(c1)CN(Cc1cccc(C(=O)N(C)C3CCCCC3)c1)C(N)=N2
(B) CCCS(=O)(=O)NCCN1Cc2cc(Oc3ccccc3)ccc2N=C1N
Returns the identifier with the smallest measured inhibition at 3 µM among A and B . Return value: the label identifying the chosen record.
B
(B: 70%, A: 118%)

###

target entity: β-secretase(BACE) (Homo sapiens, UniProt P56817)
Construct: purchased Panvera
assay info: BACE FS1% Inhibition Assay
Assay type: biochemical
measurement setup: 3 μM test compound; FS1 substrate; read-out: % Inhibition (FS) 3 μM
metric name: inhibition at 3 µM (%)

Some compounds with recorded inhibition at 3 µM:
CCC(c1cccc(C(=O)N(C)C2CCCCC2)c1)N1Cc2cc(Oc3ccccc3)ccc2N=C1N (stereo not shown) :: 107
CN(C(=O)c1cccc(CN2Cc3cc(-c4ccccc4[N+](=O)[O-])ccc3N=C2N)c1)C1CCCCC1 :: 78
NC1=Nc2ccc(Oc3ccccc3)cc2CN1CCNC(=O)C1CCC1 :: 101
CCCCCC(CCC(=O)N(C)C1CCCCC1)N1Cc2cc(Oc3ccccc3)ccc2N=C1N (stereo not shown) :: 114

(I) CN(C(=O)c1cccc(CN2Cc3cc(-c4cccnc4)ccc3N=C2N)c1)C1CCCCC1
(II) CONC1=Nc2ccc(-c3ccccc3OC)cc2CN1Cc1cccc(C(=O)N(C)C2CCCCC2)c1
Could you check which of I and II has a smaller value for inhibition at 3 µM? Answer by quoting the chosen item's label.
I
(I: 67%, II: 111%)

(A) CN(C(=O)c1cccc(CN2Cc3cc(-c4ccccc4CC#N)ccc3N=C2N)c1)C1CCCCC1
(B) CN(C(=O)c1cccc(CN2Cc3cc(Oc4cccc(-c5ccccc5)c4)ccc3N=C2N)c1)C1CCCCC1
(C) CN(C(=O)c1ccc2c(c1)C(N1Cc3cc(Oc4ccccc4)ccc3N=C1N)c1ccccc1-2)C1CCCCC1 (stereo not shown)
Place the items in sequence of falling inhibition at 3 µM. Give your ranking as a list of the labels in the requested order.
A, B, C

(I) Cc1ccccc1Oc1ccc2c(c1)CN(Cc1cccc(C(=O)N(C)C3CCCCC3)c1)C(N)=N2
(II) COc1ccccc1-c1ccc2c(c1)CN(CCC(=O)NC1C3CC4CC(C3)CC1C4)C(N)=N2 (stereo not shown)
(III) COc1ccccc1-c1ccc2c(c1)N=C(N)N(CCC(=O)NC1C3CC4CC(C3)CC1C4)C2 (stereo not shown)
# desc sort on inhibition at 3 µM across 3 compounds Your answer should be the labels, listed in the requested order.
II, I, III
(II: 126%, I: 81%, III: 41%)
